- Test system: Enterobacter cloacae
- experimental_details: Antimicrobial activity against Enterobacter cloaca assessed as diameter of inhibition zone at 10 mg/ml after 24 hrs by cut-plug method
- Format: functional
- run_conditions: read-out: DIZ
Tag: Y if measured zone of inhibition at 10000 µg/mL is not below 20 mm, N if it is.

1. Cc1ccc(C(=O)c2cc3c(-c4cccnc4)nn(-c4ccccc4)c3[nH]c2=O)cc1	N
2. O=C(c1ccc(Cl)cc1)c1cc2c(-c3cccnc3)nn(-c3ccccc3)c2[nH]c1=O	N
3. O=C(c1ccc(F)cc1)c1cc2c(-c3cccnc3)nn(-c3ccccc3)c2[nH]c1=O	Y
4. O=C(N[C@H](CO)[C@H](O)c1ccc([N+](=O)[O-])cc1)C(Cl)Cl [CHLORAMPHENICOL]	N

Kindly consider the entry below.
## Input Answer whether zone of inhibition at 10000 µg/mL of `O=C(c1cccnc1)c1cc2c(-c3cccnc3)nn(-c3ccccc3)c2[nH]c1=O` is greater than or equal to 20 mm.
## Output N

###

I'd be grateful if you could share measured EC50 for these entries.
- Tested on: Radical scavenging activity
- experimental_details: Antioxidant activity assessed as DPPH free radical scavenging activity after 30 mins by spectrophotometry
- Type: functional
Answers are plain numbers, in µg/mL.

1) Cc1ccc(-c2cc3ncc4c(-c5cccnc5)nn(-c5ccccc5)c4n3n2)cc1	53.76

Batch request: EC50 per item, same order as input.
1. O=C(c1ccc(F)cc1)c1cc2c(-c3cccnc3)nn(-c3ccccc3)c2[nH]c1=O
2. N#Cc1cc2c(-c3cccnc3)nn(-c3ccccc3)c2[nH]c1=S
3. O=C(c1ccc(Cl)cc1)c1cc2c(-c3cccnc3)nn(-c3ccccc3)c2[nH]c1=O

## Output
4.21
92.85
8.97

###

- Tested on: Serratia
- experimental_details: Antimicrobial activity against Serratia assessed as diameter of inhibition zone at 10 mg/ml after 24 hrs by cut-plug method
- Type: functional
- run_conditions: read-out: DIZ
I'd be grateful if you could share measured zone of inhibition at 10000 µg/mL for these entries.
Give bare numbers, in mm.

1. O=C(c1ccc(F)cc1)c1cc2c(-c3cccnc3)nn(-c3ccccc3)c2[nH]c1=O	17.5
2. O=C(c1cccnc1)c1cc2c(-c3cccnc3)nn(-c3ccccc3)c2[nH]c1=O	12.5
3. O=C(N[C@H](CO)[C@H](O)c1ccc([N+](=O)[O-])cc1)C(Cl)Cl	25.8

Batch request: zone of inhibition at 10000 µg/mL per item, same order as input.
1. O=C(c1ccc(Cl)cc1)c1cc2c(-c3cccnc3)nn(-c3ccccc3)c2[nH]c1=O
2. Cc1ccc(C(=O)c2cc3c(-c4cccnc4)nn(-c4ccccc4)c3[nH]c2=O)cc1

## Output
1. 17
2. 17

###

- System: Radical scavenging activity
- experimental_details: Antioxidant activity assessed as DPPH free radical scavenging activity at 50 ug after 30 mins by spectrophotometry
- Type: functional
I'd be grateful if you could share measured Activity for these entries.

The cases that follow already have their Activity on record.
1. O=C1O[C@H]([C@@H](O)CO)C(O)=C1O	82.8%
2. O=C(c1ccc(F)cc1)c1cc2c(-c3cccnc3)nn(-c3ccccc3)c2[nH]c1=O	72.3%
3. N#Cc1cc2c(-c3cccnc3)nn(-c3ccccc3)c2[nH]c1=S	17%
4. Cc1ccc(C(=O)c2cc3c(-c4cccnc4)nn(-c4ccccc4)c3[nH]c2=O)cc1	38.9%
5. Clc1ccc(-c2cc3ncc4c(-c5cccnc5)nn(-c5ccccc5)c4n3n2)cc1	29.4%
6. O=C(c1ccc(Cl)cc1)c1cc2c(-c3cccnc3)nn(-c3ccccc3)c2[nH]c1=O	63.6%
7. N#Cc1cc2c(-c3cccnc3)nn(-c3ccccc3)c2[nH]c1=O	1.14%
8. c1ccc(-c2cc3ncc4c(-c5cccnc5)nn(-c5ccccc5)c4n3n2)cc1	9.47%

Batch request: Activity per item, same order as input.
1. Cc1ccc(-c2cc3ncc4c(-c5cccnc5)nn(-c5ccccc5)c4n3n2)cc1
2. O=C(c1cccnc1)c1cc2c(-c3cccnc3)nn(-c3ccccc3)c2[nH]c1=O

## Output
39.6%
36%
